Target: T1, monovalent hVISTA-ECD (human VISTA extracellular domain with His tail) (human, UniProt Q9H7M9 33-193)
T1 construct: analyte flowed over captured antibody; also called huVISTA-His
T1 sequence (Q9H7M9 other isoform, or with tags, fused parts or gaps limits assumed): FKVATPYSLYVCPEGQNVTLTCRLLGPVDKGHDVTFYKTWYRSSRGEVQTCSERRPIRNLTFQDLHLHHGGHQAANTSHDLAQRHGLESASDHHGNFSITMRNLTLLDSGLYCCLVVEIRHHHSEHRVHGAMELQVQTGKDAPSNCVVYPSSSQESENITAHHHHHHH
Assay: SPR
Procedure: Binding of several preparations of each of the '029 progeny clones and of the parent '029 antibodies, formatted as IgG1.3 antibodies, to human VISTA at pH 6.0 and 7.4 was measured by Surface plasmon resonance (SPR). SPR analysis was performed to measure koff and KD binding affinity measurements for VISTA Abs at acidic and neutral pHs using a Biacore® T100 instrument (GE Healthcare). […] The affinity constant, KD was calculated as the ratio of rate constants koff/kₒₙ for each VISTA antibody.
Quantity kind: pH 6.0/7.4 kd
A bare number is all that is needed in reply.

binder="P1-064391 (41F11_HC_Mutant: D31E/Y50W/S55E/Y100E 41F11_LC_Mutant: V29D/A64G/R91T) (antibody, V domains shown, Kabat positions; also called P1-064391-1) VH: QVQLVESGGGLVKPGGSLRLSCAASGFTFSEYYMSWIRQAPGKGLEWVSWISNSGEPIYYADSVKGRFTISRDNAKNSLYLQMNSLRAEDTAVYYCARDLPGWEFDLWGRGTLVTVSS VL: EIVLTQSPATLSLSPGERATLSCRASQSDSSYLAWYQQKPGQAPRLLIYDASNRATGIPARFSGSGSGTDFTLTISSLEPEDFAVYYCQQTNNWPRTFGQGTKVEIK" value_measured=2.1
binder="P1-063125 (41F11_HC_Mutant: T28P/Y50W/S55E/Y100E) (antibody, V domains shown, Kabat positions; also called P1-063125-5) VH: QVQLVESGGGLVKPGGSLRLSCAASGFPFSDYYMSWIRQAPGKGLEWVSWISNSGEPIYYADSVKGRFTISRDNAKNSLYLQMNSLRAEDTAVYYCARDLPGWEFDLWGRGTLVTVSS VL: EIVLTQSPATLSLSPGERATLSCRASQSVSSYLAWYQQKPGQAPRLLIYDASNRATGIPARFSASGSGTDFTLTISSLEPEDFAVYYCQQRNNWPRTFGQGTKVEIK" value_measured=3.9

Next binder, please.
Data request: Give recorded pH 6.0/7.4 kd. P1-065326 (41F11_VH_D31E/Y50W/S55E/L96E/Y100E VK_A64G) (antibody, V domains shown, Kabat positions; also called P1-065326-1) VH: QVQLVESGGGLVKPGGSLRLSCAASGFTFSEYYMSWIRQAPGKGLEWVSWISNSGEPIYYADSVKGRFTISRDNAKNSLYLQMNSLRAEDTAVYYCARDEPGWEFDLWGRGTLVTVSS VL: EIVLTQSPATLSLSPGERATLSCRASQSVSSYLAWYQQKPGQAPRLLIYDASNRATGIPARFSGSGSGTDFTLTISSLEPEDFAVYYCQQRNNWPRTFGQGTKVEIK
Data returned: 1.1
